Source listed as patent US20120238493A1.

Parameter EC50 (cAMP reporter): see the listing below.
Measured on: T1, GIP receptor (UniProt P48546 22-466, limits assumed)
T1 sequence (looked up): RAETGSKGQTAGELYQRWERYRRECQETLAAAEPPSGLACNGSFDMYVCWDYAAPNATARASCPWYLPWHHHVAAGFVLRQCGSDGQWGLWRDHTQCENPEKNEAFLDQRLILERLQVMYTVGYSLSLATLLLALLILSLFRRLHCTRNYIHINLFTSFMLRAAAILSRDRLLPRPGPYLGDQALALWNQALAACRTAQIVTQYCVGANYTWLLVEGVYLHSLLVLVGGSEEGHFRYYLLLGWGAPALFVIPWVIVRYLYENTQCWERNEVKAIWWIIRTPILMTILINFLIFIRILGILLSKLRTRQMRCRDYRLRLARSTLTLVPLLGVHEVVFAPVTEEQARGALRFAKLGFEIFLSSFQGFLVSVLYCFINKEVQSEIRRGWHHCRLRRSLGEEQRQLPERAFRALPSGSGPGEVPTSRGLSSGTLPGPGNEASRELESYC
Protocol description: cell-based or functional assay
*1 amine or outer side, *2 acyl side, *3 side chain or, on linkers, in order; H or OH if unused. Where no end group is shown, it is not given here. Side-chain parts run from the residue outwards. [ ]: non-standard residue; d: D form. Suc = O=C(CCC(=O)[*:2])[*:1]; Aib = CC(C)(N)C(=O)O
Record the result as a number with its unit.

{"Binder": "Y[Aib]EGTFTSDYSIYLDKQAA[Aib]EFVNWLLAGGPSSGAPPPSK([Suc-C18])G-NH2 [peptide of SEQ ID NO: 142]", "EC50 (cAMP reporter)": "1 pM"}

Exercise: # EC50 (cAMP reporter) lookup, item YXEGTFTSDXSIYLDKQAAXEFVNWLLAGGPSSGAPPPS (aib at 2 and 20; 4-aminoPhe at 10 acylated F(4-aminoγEγEC16); NH2) [peptide of SEQ ID NO: 143]
Solution: 3 pM

Exercise: # EC50 (cAMP reporter) lookup, item YXEGTFTSDXSIYLDKQAAXEFVNWLLAGGPSSGAPPPS (aib at 2 and 20; 4-aminoPhe at 10, F(4amino-succinoylC16); NH2) [peptide of SEQ ID NO: 144]
Solution: 13 pM
